Sourced from the supplement of paper PMC9233669

- Tested on: biotinyl-Val-oxazolone
- Assay Overview: self-aminoacylation, catalytic enhancement (BVO) (fold over background); higher = more active; k-Seq, kA / k0A0; sequences stand for … in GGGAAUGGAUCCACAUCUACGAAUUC…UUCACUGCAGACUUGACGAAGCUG
Variants at the floor of the assay were thinned out.
Endpoint Label: self-aminoacylation

Worked examples follow.
- Sequence Entry: "CGACUUCAAACAAUCGGUCUU [Fam1A.1 aminoacylation ribozyme variant]"
  self-aminoacylation: 1.71
- Sequence Entry: "CGACUUCAAACAAUUGGUCUG [Fam1A.1 aminoacylation ribozyme variant]"
  self-aminoacylation: 0.891
- Sequence Entry: "AUUACCGCGGUCAUCGAGUGA [Fam2.1 aminoacylation ribozyme variant]"
  self-aminoacylation: 3.11
- Sequence Entry: "CUACUUCAAACAAUCGGCGUG [Fam1A.1 aminoacylation ribozyme variant]"
  self-aminoacylation: 3.12
- Sequence Entry: "AAGUUUGCCAAUAGUCGAAAG [Fam3.1 aminoacylation ribozyme variant]"
  self-aminoacylation: 1.02

Entry CUAUUUCAAACAAUCGGUUUG [Fam1A.1 aminoacylation ribozyme variant] : reported self-aminoacylation = ?
0.81

Entry AUUCACCAAGGUCGUCGGGUG [Fam2.2 aminoacylation ribozyme variant] : reported self-aminoacylation = ?
2.58

Entry CUACUUCAUACAAUUGGUCUG [Fam1A.1 aminoacylation ribozyme variant] : reported self-aminoacylation = ?
0.849

Entry CUAGUUCAAACGAUCGGUCUG [Fam1A.1 aminoacylation ribozyme variant] : reported self-aminoacylation = ?
0.794

Entry AUUACCGUGGUCAACGAGUGA [Fam2.1 aminoacylation ribozyme variant] : reported self-aminoacylation = ?
4.21

Entry CCACACGUCAAGCACUCGGUC [Fam1B.1 aminoacylation ribozyme variant] : reported self-aminoacylation = ?
2.17

Entry AUUCAUCUAGGUCAUCGGGUA [Fam2.2 aminoacylation ribozyme variant] : reported self-aminoacylation = ?
3.46
